These measurements were taken from patent US7994204B2.

Quick reference for melting point among some molecules

# count of solved cases: 5
CCn1c(C(C)NS(=O)(=O)c2ccc(Cl)c(Cl)c2)cnc1OC (stereo not shown)
199 to 200 °C
CCn1c(C(C)NS(=O)(=O)c2ccc3cc(C)ccc3c2)cnc1Oc1cccc(N2CCN(C)CC2)c1 (stereo not shown)
175 to 177 °C
CCn1c(C(C)NS(=O)(=O)c2ccc(Cl)c(Cl)c2)cnc1Oc1ccc2ccncc2c1 (stereo not shown)
185.5 to 187.5 °C
CCn1c(C(NS(=O)(=O)c2ccc(Cl)c(Cl)c2)C(C)C)cnc1Oc1ccc(F)cc1 (stereo not shown)
101 to 102 °C
CCn1c(C(C)NS(=O)(=O)c2ccc(Cl)c(Cl)c2)cnc1Oc1ccc(OC)cc1 (stereo not shown)
146.5 to 148 °C

Query (molecule): CCn1c(Oc2ccc(F)cc2)nc(Br)c1C(C)NS(=O)(=O)c1ccc(Cl)c(Cl)c1 (stereo not shown) ; field requested: melting point
128.5 to 129.5 °C

Query (molecule): CCn1c(C(C)NS(=O)(=O)c2ccc3cccc(Cl)c3c2)cnc1Oc1cccc(N2CCN(C)CC2)c1 (stereo not shown) ; field requested: melting point
196 to 198 °C

Query (molecule): CCc1c(C(C)NS(=O)(=O)c2ccc3c(Cl)cccc3c2)nn(C)c1Oc1ccc(C)cc1 (stereo not shown) ; field requested: melting point
154.5 to 155.5 °C

Query (molecule): "CCn1c(CNS(=O)(=O)c2ccc(Cl)c(Cl)c2)cnc1Oc1ccc(F)cc1" ; field requested: melting point
154 to 155 °C

Query (molecule): CCn1c(C(C)NS(=O)(=O)c2ccc(Cl)c(Cl)c2)cnc1OC1CCC1 (stereo not shown) ; field requested: melting point
162 to 163 °C
